Test system: Candida albicans
Assay: Disseminated candidosis in guinea-pigs
Format: in vivo
Details: oral treatment 5 mg/kg/day, twice daily, 19 treatments
experimental_endpoint: MST (mean survival time) (days)
# number only, unit days dropped from output

Consider the worked cases shown below.
CC(C)CC(N)C(=O)OC(C)C(C)n1ncn(-c2ccc(N3CCN(c4ccc(OCC5COC(Cn6cncn6)(c6ccc(F)cc6F)O5)cc4)CC3)cc2)c1=O (stereo not shown) [Compound 21]    9.6
C[C@H](OC(=O)[C@@H](N)Cc1ccccc1)[C@H](C)n1ncn(-c2ccc(N3CCN(c4ccc(OC[C@@H]5CO[C@@](Cn6cncn6)(c6ccc(F)cc6F)O5)cc4)CC3)cc2)c1=O (relative stereo) [Compound 23]    10
CCN(CC)CC(=O)OC(C)C(C)n1ncn(-c2ccc(N3CCN(c4ccc(OCC5COC(Cn6cncn6)(c6ccc(F)cc6F)O5)cc4)CC3)cc2)c1=O.O=C(O)C=CC(=O)O (stereo not shown) [Compound 16]    9.6

Look at this compound and give its reported MST (mean survival time). CC(C)C(N)C(=O)OC(C)C(C)n1ncn(-c2ccc(N3CCN(c4ccc(OCC5COC(Cn6cncn6)(c6ccc(F)cc6F)O5)cc4)CC3)cc2)c1=O (stereo not shown) [Compound 18] 10

* * *

Tested on: Candida tropicalis
Assay: Determination of fungal susceptibility (MIC)
Assay type: cell-based
Conditions: CYG medium, 2 days at 37° C., growth to 35% of control or less
experimental_endpoint: MIC

Consider the worked cases shown below.
CC(C)CC(N)C(=O)OC(C)C(C)n1ncn(-c2ccc(N3CCN(c4ccc(OCC5COC(Cn6cncn6)(c6ccc(F)cc6F)O5)cc4)CC3)cc2)c1=O (stereo not shown)    0.1 10^−6 M
CCN(CC)CC(=O)OC(C)C(C)n1ncn(-c2ccc(N3CCN(c4ccc(OCC5COC(Cn6cncn6)(c6ccc(F)cc6F)O5)cc4)CC3)cc2)c1=O.O=C(O)C=CC(=O)O (stereo not shown)    <0.1 10^−6 M

Look at this molecule and give its reported MIC. CC(C)C(N)C(=O)OC(C)C(C)n1ncn(-c2ccc(N3CCN(c4ccc(OCC5COC(Cn6cncn6)(c6ccc(F)cc6F)O5)cc4)CC3)cc2)c1=O (stereo not shown) <0.1 10^−6 M

C[C@H](OC(=O)[C@@H](N)Cc1ccccc1)[C@H](C)n1ncn(-c2ccc(N3CCN(c4ccc(OC[C@@H]5CO[C@@](Cn6cncn6)(c6ccc(F)cc6F)O5)cc4)CC3)cc2)c1=O (relative stereo) ? <0.1 10^−6 M

* * *

Parameter MIC: see the listing below.
Tested on: Microsporum canis
Experiment: Determination of fungal susceptibility (MIC)
Format: cell-based
Conditions: CYG medium, 5 days at 30° C., growth to 35% of control or less

CCN(CC)CC(=O)OC(C)C(C)n1ncn(-c2ccc(N3CCN(c4ccc(OCC5COC(Cn6cncn6)(c6ccc(F)cc6F)O5)cc4)CC3)cc2)c1=O.O=C(O)C=CC(=O)O (stereo not shown)    1 10^−6 M
CC(C)CC(N)C(=O)OC(C)C(C)n1ncn(-c2ccc(N3CCN(c4ccc(OCC5COC(Cn6cncn6)(c6ccc(F)cc6F)O5)cc4)CC3)cc2)c1=O (stereo not shown)    1 10^−6 M
CC(C)C(N)C(=O)OC(C)C(C)n1ncn(-c2ccc(N3CCN(c4ccc(OCC5COC(Cn6cncn6)(c6ccc(F)cc6F)O5)cc4)CC3)cc2)c1=O (stereo not shown)    10 10^−6 M

Consider now this further compound.
Look at this compound and give its reported MIC. C[C@H](OC(=O)[C@@H](N)Cc1ccccc1)[C@H](C)n1ncn(-c2ccc(N3CCN(c4ccc(OC[C@@H]5CO[C@@](Cn6cncn6)(c6ccc(F)cc6F)O5)cc4)CC3)cc2)c1=O (relative stereo) <1 10^−6 M

* * *

Tested on: Aspergillus fumigatus
Test: Disseminated aspergillosis in guinea-pigs
Type: in vivo
Settings: liver, spleen, kidney, lung and brain, oral treatment 5 mg/kg/day
experimental_endpoint: % neg (total percentage culture-negative deep tissues) (%)
# number only, unit % dropped from output

Consider the worked cases shown below.
CC(C)CC(N)C(=O)OC(C)C(C)n1ncn(-c2ccc(N3CCN(c4ccc(OCC5COC(Cn6cncn6)(c6ccc(F)cc6F)O5)cc4)CC3)cc2)c1=O (stereo not shown)    55
CCN(CC)CC(=O)OC(C)C(C)n1ncn(-c2ccc(N3CCN(c4ccc(OCC5COC(Cn6cncn6)(c6ccc(F)cc6F)O5)cc4)CC3)cc2)c1=O.O=C(O)C=CC(=O)O (stereo not shown)    48
CC(C)C(N)C(=O)OC(C)C(C)n1ncn(-c2ccc(N3CCN(c4ccc(OCC5COC(Cn6cncn6)(c6ccc(F)cc6F)O5)cc4)CC3)cc2)c1=O (stereo not shown)    20

Consider now this further molecule.
Form field - read-out: % neg (total percentage culture-negative deep tissues); system: Aspergillus fumigatus; submitted item: C[C@H](OC(=O)[C@@H](N)Cc1ccccc1)[C@H](C)n1ncn(-c2ccc(N3CCN(c4ccc(OC[C@@H]5CO[C@@](Cn6cncn6)(c6ccc(F)cc6F)O5)cc4)CC3)cc2)c1=O (relative stereo) 55
